test-target: HLA-B*15:09
protocol-details: IEDB peptide-MHC binding, purified MHC/competitive/fluorescence; filed as Kd, often an IC50 or EC50 that approximates it; bounds were set here for any values at or beyond the usual limits of such assays
test-settings: source organism: Variola virus
property-name: pKd
Please keep in mind that pKd is minus log10 of the molar concentration; only the number is needed.

Asked: Fill: pKd (HLA-B*15:09) for this sequence SQIETGTPF
Given back: 7.17

---

test-target: HLA-A*26:01
protocol-details: IEDB peptide-MHC binding, purified MHC/competitive/radioactivity; filed as Kd, often an IC50 or EC50 that approximates it; bounds were set here for any values at or beyond the usual limits of such assays
test-settings: source organism: Lymphocytic choriomeningitis virus (strain Armstrong)
Measured pKd, listed per entry for reference.
Please keep in mind that pKd is minus log10 of the molar concentration; only the number is needed.

macromolecule-sequence	observed-measurement
DLMGVPYCNY	6.79

Attention now shifts to the item below.
Asked: Return the recorded pKd value; entry: FTSDVKAAVI
Given back: 5.19

---

test-target: HLA-A*02:01
protocol-details: IEDB peptide-MHC binding, purified MHC/competitive/fluorescence; filed as Kd, often an IC50 or EC50 that approximates it; bounds were set here for any values at or beyond the usual limits of such assays
test-settings: source organism: human gammaherpesvirus 4
property-name: Kd (nM)
Provide only the numeric value, understood in nM.

Asked: Return the recorded Kd value; entry: SVRDRLARL
Given back: 407

---

test-target: HLA-B*58:01
protocol-details: IEDB peptide-MHC binding, purified MHC/competitive/fluorescence; filed as Kd, often an IC50 or EC50 that approximates it; bounds were set here for any values at or beyond the usual limits of such assays
test-settings: source organism: Escherichia coli APEC O1
property-name: pKd
Please keep in mind that pKd is minus log10 of the molar concentration; only the number is needed.

Asked: Fill: pKd (HLA-B*58:01) for this sequence YTTDVNQLY
Given back: 7.44

---

test-target: HLA-B*57:01
protocol-details: IEDB peptide-MHC binding, purified MHC/direct/fluorescence; filed as Kd, often an IC50 or EC50 that approximates it; bounds were set here for any values at or beyond the usual limits of such assays
test-settings: source organism: Cryptosporidium parvum Iowa II
pKd: −log10 of the molar value.
property-name: pKd

Asked: Return the recorded pKd value; entry: YLAKLFLDH
Given back: ≤ 4.70

---

test-target: HLA-A*32:01
protocol-details: IEDB peptide-MHC binding, purified MHC/competitive/radioactivity; filed as Kd, often an IC50 or EC50 that approximates it; bounds were set here for any values at or beyond the usual limits of such assays
test-settings: source organism: Dengue virus 4 Dominica/814669/1981
property-name: pKd
Please keep in mind that pKd is minus log10 of the molar concentration; only the number is needed.

macromolecule-sequence	pKd
KTQAIDGEF	6.19

Attention now shifts to the item below.
Asked: Return the recorded pKd value; entry: PNERRAWNSL
Given back: 5.89

---

test-target: HLA-B*44:03
protocol-details: IEDB peptide-MHC binding, purified MHC/competitive/radioactivity; filed as Kd, often an IC50 or EC50 that approximates it; bounds were set here for any values at or beyond the usual limits of such assays
test-settings: source organism: Lymphocytic choriomeningitis virus (strain Armstrong)
property-name: pKd
Please keep in mind that pKd is minus log10 of the molar concentration; only the number is needed.

Asked: Return the recorded pKd value; entry: SEISVILQEL
Given back: 6.62
